Some compounds, each annotated with its measured IC50.
TEST_TARGET: CyclinA2/CDK2 (Homo sapiens, UniProt P20248)
Construct: purchased CRELUX Protein Services
MEASUREMENT_NOTES: Fluorescence Polarization (FP) competitive binding assay, Cyclin A2/Cdk2;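 also: plates equilibrated two hours at room temperature before polarization reading, IC50 fitted from eight-concentration compound titration curves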
MEASUREMENT_SETUP: 8 nM Cyclin A2/Cdk2, 2 nM FAM probe; average of 2-3 independent experiments; read-out: Cyclin A FP IC50
*1 amine or outer side, *2 acyl side, *3 side chain or, on linkers, in order; H or OH if unused. Where a SMILES comes first, the peptide text is derived from it. Bridges are numbered along the chain shown (N, C = ends). [ ]: non-standard residue; d: D form. The star is where a group is joined. X110 = CC(C)C(=O)N1[C@H]2CC[C@@H]1C=C(c1ccc(Cl)cc1C[C@@H](C(=O)[*:2])N(C)[*:1])C2; NMePhe(2-(4-MorPh),5-Cl) = CN[C@@H](Cc1cc(Cl)ccc1-c1ccc(N2CCOCC2)cc1)C(=O)O; X157 = CN([C@@H](Cc1cc(Cl)ccc1-c1ccc(S(=O)(=O)N2CCOCC2)cc1)C(=O)[*:2])[*:1]; X138 = CN([C@@H](Cc1cc(Cl)ccc1-c1ccc(S(=O)(=O)N2CCCC2)cc1)C(=O)[*:2])[*:1]; X203 = CN([C@@H](Cc1cc(Cl)ccc1-c1cnn(C(F)F)c1)C(=O)[*:2])[*:1]; NMehhhLys(Me) = CN([C@@H](CCCCCCCN(C)[*:3])C(=O)[*:2])[*:1]; NMe(hhhLys) = CN([C@@H](CCCCCCCN[*:3])C(=O)[*:2])[*:1]; cBuCO(3,3-F2-1-CF3) = O=C(C1(C(F)(F)F)CC(F)(F)C1)*; NMePhe(2,5-Cl2) = CN[C@@H](Cc1cc(Cl)ccc1Cl)C(=O)O; Pro(trans-4-F) = O=C(O)[C@@H]1C[C@@H](F)CN1; X155 = C[C@@](O)(C(=O)*)C(F)(F)F; Gly(cPr) = N[C@H](C(=O)O)C1CC1

COMPOUND: CC(C)C[C@@H]1NC(=O)[C@@H](N(C)C(=O)[C@@H](NC(=O)[C@@H]2C[C@@H](F)CN2C(=O)C2(C(F)(F)F)CC(F)(F)C2)C2CC2)CCCCCCCN(C)C(=O)[C@H](Cc2cc(Cl)ccc2-c2ccc(S(=O)(=O)N3CCOCC3)cc2)N(C)C1=O [Example 354] ({cBuCO(3,3-F2-1-CF3)}-[Pro(trans-4-F)][Gly(cPr)][NMehhhLys(Me)]L[X157]; lactam 3-C)
UNIT_OF_MEASURE: nM
IC50: 30

COMPOUND: CC(C)C[C@@H]1NC(=O)[C@@H](N(C)C(=O)[C@@H](NC(=O)[C@@H]2C[C@@H](F)CN2C(=O)C2(C(F)(F)F)CC(F)(F)C2)C2CC2)CCCCCCCNC(=O)[C@H](Cc2cc(Cl)ccc2C2=C[C@H]3CC[C@@H](C2)N3C(=O)C(C)C)N(C)C1=O [Example 313] ({cBuCO(3,3-F2-1-CF3)}-[Pro(trans-4-F)][Gly(cPr)][NMe(hhhLys)]L[X110]; lactam 3-C)
UNIT_OF_MEASURE: nM
IC50: 20

COMPOUND: CC(C)C[C@@H]1NC(=O)[C@@H](N(C)C(=O)[C@H](CCC(=O)O)NC(=O)[C@@H]2C[C@@H](F)CN2C(=O)C2(C(F)(F)F)CC(F)(F)C2)CCCCCCCN(C)C(=O)[C@H](Cc2cc(Cl)ccc2-c2ccc(N3CCOCC3)cc2)N(C)C1=O [Example 418] ({cBuCO(3,3-F2-1-CF3)}-[Pro(trans-4-F)]E[NMehhhLys(Me)]L[NMePhe(2-(4-MorPh),5-Cl)]; lactam 3-C)
UNIT_OF_MEASURE: nM
IC50: 120

COMPOUND: CC(C)C[C@@H]1NC(=O)[C@@H](N(C)C(=O)[C@@H](NC(=O)[C@@H]2C[C@@H](F)CN2C(=O)C2(C(F)(F)F)CC(F)(F)C2)C2CC2)CCCCCCCN(C)C(=O)[C@H](Cc2cc(Cl)ccc2-c2cnn(C(F)F)c2)N(C)C1=O [Example 200] ({cBuCO(3,3-F2-1-CF3)}-[Pro(trans-4-F)][Gly(cPr)][NMehhhLys(Me)]L[X203]; lactam 3-C)
UNIT_OF_MEASURE: nM
IC50: 30

COMPOUND: CC(C)C[C@@H]1NC(=O)[C@@H](N(C)C(=O)[C@@H](NC(=O)[C@@H]2C[C@@H](F)CN2C(=O)C2(C(F)(F)F)CC(F)(F)C2)C2CC2)CCCCCCCN(C)C(=O)[C@H](Cc2cc(Cl)ccc2-c2ccc(S(=O)(=O)N3CCCC3)cc2)N(C)C1=O [Example 266] ({cBuCO(3,3-F2-1-CF3)}-[Pro(trans-4-F)][Gly(cPr)][NMehhhLys(Me)]L[X138]; lactam 3-C)
UNIT_OF_MEASURE: nM
IC50: 20

COMPOUND: CC(C)C[C@@H]1NC(=O)[C@@H](N(C)C(=O)[C@@H](NC(=O)[C@@H]2C[C@@H](F)CN2C(=O)[C@@](C)(O)C(F)(F)F)C2CC2)CCCCCCCNC(=O)[C@H](Cc2cc(Cl)ccc2Cl)N(C)C1=O [Example 10] (X155-[Pro(trans-4-F)][Gly(cPr)][NMe(hhhLys)]L[NMePhe(2,5-Cl2)]; lactam 3-C)
UNIT_OF_MEASURE: nM
IC50: 100
